Hey, just so you know, these numbers are from paper PMC12483202.

test.method.notes: Single oral dose (5 mg/kg) pharmacokinetics of firocoxib in koalas, plasma HPLC, non-compartmental analysis
condition.context: female, plasma, po, 5 mg/kg, ke, arithmetic mean, female koalas (n = 3); single oral 5 mg/kg
measured.metric: k el
Respond with a number, then the unit of measure.

Given item CC1(C)OC(=O)C(OCC2CC2)=C1c1ccc(S(C)(=O)=O)cc1 [firocoxib] , the value recorded as its k el is 3.33e-05 s⁻¹

----------
test.method.notes: Single oral dose (5 mg/kg) pharmacokinetics of firocoxib in koalas, plasma HPLC, non-compartmental analysis
condition.context: both, plasma, po, 5 mg/kg, MRT0-inf, harmonic mean, n = 6 koalas; single oral 5 mg/kg
measured.metric: MRT inf (h)
Respond with the bare value in h.

Given item CC1(C)OC(=O)C(OCC2CC2)=C1c1ccc(S(C)(=O)=O)cc1 [firocoxib] , the value recorded as its MRT inf is 10.7

----------
test.method.notes: Single oral dose (5 mg/kg) pharmacokinetics of firocoxib in koalas, plasma HPLC, non-compartmental analysis
condition.context: both, plasma, po, 5 mg/kg, Vss/F, median (range), n = 6 koalas; single oral 5 mg/kg
measured.metric: Vd/F (L)
Respond with the bare value in L.

Given item CC1(C)OC(=O)C(OCC2CC2)=C1c1ccc(S(C)(=O)=O)cc1 [firocoxib] , the value recorded as its Vd/F is 811

----------
test.method.notes: Single oral dose (5 mg/kg) pharmacokinetics of firocoxib in koalas, plasma HPLC, non-compartmental analysis
condition.context: male, plasma, po, 5 mg/kg, Cmax, harmonic mean, male koalas (n = 3); single oral 5 mg/kg
measured.metric: Cmax (ng/mL)
Respond with the bare value in ng/mL.

Given item CC1(C)OC(=O)C(OCC2CC2)=C1c1ccc(S(C)(=O)=O)cc1 [firocoxib] , the value recorded as its Cmax is 217

----------
test.method.notes: Single oral dose (5 mg/kg) pharmacokinetics of firocoxib in koalas, plasma HPLC, non-compartmental analysis
condition.context: male, koala (Phascolarctos cinereus), plasma, po, 5 mg/kg, Firocoxib plasma concentration, K1 male; 8 h; single oral 5 mg/kg
measured.metric: concentration at 8 h
Respond with a number, then the unit of measure.

Given item CC1(C)OC(=O)C(OCC2CC2)=C1c1ccc(S(C)(=O)=O)cc1 [firocoxib] , the value recorded as its concentration at 8 h is 191 ng/mL

----------
test.method.notes: Repeated oral dosing (5 mg/kg every 12 h, six doses) plasma trough concentrations in koalas
Format: in vivo
condition.context: female, koala (Phascolarctos cinereus), plasma, median (range), females, 48 h, 5 mg/kg oral every 12 h, read-out: Firocoxib trough plasma concentration
measured.metric: concentration at 48 h (ng/mL)
Respond with the bare value in ng/mL.

Given item "CC1(C)OC(=O)C(OCC2CC2)=C1c1ccc(S(C)(=O)=O)cc1" , the value recorded as its concentration at 48 h is 60.2

----------
test.method.notes: Single oral dose (5 mg/kg) pharmacokinetics of firocoxib in koalas, plasma HPLC, non-compartmental analysis
condition.context: male, plasma, po, 5 mg/kg, Tmax, K3 male; single oral 5 mg/kg
measured.metric: Tmax (h)
Respond with the bare value in h.

Given item "CC1(C)OC(=O)C(OCC2CC2)=C1c1ccc(S(C)(=O)=O)cc1" , the value recorded as its Tmax is 4

----------
test.method.notes: Single oral dose (5 mg/kg) pharmacokinetics of firocoxib in koalas, plasma HPLC, non-compartmental analysis;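 further: healthy adult koalas, three per sex, anaesthetised the day before dosing for cephalic vein catheterisation, with serial blood draws and firocoxib in plasma quantified by HPLC using fluorescence detection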
condition.context: male, plasma, po, 5 mg/kg, Vz/F, K3 male; single oral 5 mg/kg
measured.metric: Vd/F (L)
Respond with the bare value in L.

Given item "CC1(C)OC(=O)C(OCC2CC2)=C1c1ccc(S(C)(=O)=O)cc1" , the value recorded as its Vd/F is 113
